Target: Jak2 (UniProt O60674)
Sequence (O60674 whole entry, looked up): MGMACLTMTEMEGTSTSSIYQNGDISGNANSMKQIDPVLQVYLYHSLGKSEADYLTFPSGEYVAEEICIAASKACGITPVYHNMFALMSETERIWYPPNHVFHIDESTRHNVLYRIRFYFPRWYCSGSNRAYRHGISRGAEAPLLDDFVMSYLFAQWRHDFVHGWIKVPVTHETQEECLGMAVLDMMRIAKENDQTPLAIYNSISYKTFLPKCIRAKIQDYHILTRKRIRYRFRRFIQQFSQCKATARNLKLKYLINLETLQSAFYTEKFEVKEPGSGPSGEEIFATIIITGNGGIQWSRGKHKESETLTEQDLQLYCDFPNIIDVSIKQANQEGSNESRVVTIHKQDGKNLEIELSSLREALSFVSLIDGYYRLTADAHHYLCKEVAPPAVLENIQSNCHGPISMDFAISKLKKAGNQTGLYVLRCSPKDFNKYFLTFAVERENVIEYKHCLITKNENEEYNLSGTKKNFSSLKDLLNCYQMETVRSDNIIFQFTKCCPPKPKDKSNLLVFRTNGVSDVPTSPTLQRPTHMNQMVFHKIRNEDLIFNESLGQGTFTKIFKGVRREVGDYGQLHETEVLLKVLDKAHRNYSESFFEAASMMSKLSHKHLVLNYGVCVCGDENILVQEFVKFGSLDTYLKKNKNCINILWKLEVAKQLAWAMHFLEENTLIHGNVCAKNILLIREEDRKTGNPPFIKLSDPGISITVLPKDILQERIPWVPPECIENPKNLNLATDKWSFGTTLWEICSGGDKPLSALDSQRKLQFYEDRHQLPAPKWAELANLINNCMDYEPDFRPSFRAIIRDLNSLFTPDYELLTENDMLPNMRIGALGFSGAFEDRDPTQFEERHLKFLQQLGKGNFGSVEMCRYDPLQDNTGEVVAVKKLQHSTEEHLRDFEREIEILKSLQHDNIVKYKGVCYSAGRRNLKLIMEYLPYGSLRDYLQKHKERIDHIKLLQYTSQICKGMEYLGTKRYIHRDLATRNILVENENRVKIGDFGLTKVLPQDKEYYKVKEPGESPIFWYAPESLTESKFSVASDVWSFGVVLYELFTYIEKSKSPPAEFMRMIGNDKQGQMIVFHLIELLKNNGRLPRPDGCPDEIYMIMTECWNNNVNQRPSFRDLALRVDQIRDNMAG
Test: phosphorylation enrichment, bacterial display (enrichment ratio); higher = better substrate or ligand; peptides without Tyr show the background;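 note: 11-residue human phosphosite peptides and single-mutation variants displayed on the E. coli surface, counted by deep sequencing, each peptide's frequency after selection divided by its frequency in the unselected input library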;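 note: frequency after pTyr selection over input frequency; kinase dosed for 20-30% of maximal phosphorylation in three min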
Quick reference for phosphorylation enrichment among some sequences
Lab note: record just the number, no unit beside it.

          biopolymer_sequence  measured_number
0  VSKGGYFSVNL [C3orf33_Y164]             1.08

Name the value of phosphorylation enrichment reported for EIKLAYRRRPP [GRIN2B_Y1109_E1106K] when tested on Jak2 (UniProt O60674). 0.861

Name the value of phosphorylation enrichment reported for TWSSSYRSDRL [CRYBB1_Y131] when tested on Jak2 (UniProt O60674). 0.621

Name the value of phosphorylation enrichment reported for WVFNHYRCIIW [BRCA2_Y2624_W2626C_YF] when tested on Jak2 (UniProt O60674). 1.41
